Please respond with reported IC50 for every item in the list.
Target: T1, Human CXCR2 (human, UniProt P25025 1-360)
T1 construct: Some cell lines carry an N-terminal 3xHA tag; also called hCXCR2; huCXCR2
T1 sequence: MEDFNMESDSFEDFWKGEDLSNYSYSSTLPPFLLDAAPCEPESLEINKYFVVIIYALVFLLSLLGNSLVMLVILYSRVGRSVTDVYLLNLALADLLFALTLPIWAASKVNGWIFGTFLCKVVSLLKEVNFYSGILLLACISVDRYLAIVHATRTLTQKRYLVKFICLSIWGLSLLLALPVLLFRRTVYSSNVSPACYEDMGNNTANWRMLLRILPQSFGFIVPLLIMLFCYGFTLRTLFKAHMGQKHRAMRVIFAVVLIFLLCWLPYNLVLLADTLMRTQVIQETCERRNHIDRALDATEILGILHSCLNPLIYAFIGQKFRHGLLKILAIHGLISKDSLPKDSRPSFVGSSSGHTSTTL
Assay: FACS competition vs 3 nM FMAT-Blue Gro-α
Report the figure in nM without appending any unit label.

Query: Form field: reported IC50 of CXCR20032 (bispecific antibody, Biparatopic: two VHH joined by a GlySer linker; also called 2B2-35GS-163D2; not shown: C-terminal c-myc tag and His6 tag coded by pAX100) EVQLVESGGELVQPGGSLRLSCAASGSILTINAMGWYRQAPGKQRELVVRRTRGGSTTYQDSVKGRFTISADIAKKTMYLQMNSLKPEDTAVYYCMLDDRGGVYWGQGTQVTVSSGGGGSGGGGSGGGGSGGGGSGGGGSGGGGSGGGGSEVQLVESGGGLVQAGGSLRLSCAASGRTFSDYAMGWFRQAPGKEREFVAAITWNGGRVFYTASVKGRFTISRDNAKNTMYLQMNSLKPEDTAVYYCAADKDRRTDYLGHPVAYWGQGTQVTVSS
Reply: 0.5

Query: Form field: reported IC50 of CXCR20017 (other, Two different VHH joined by a GlySer linker; also called 97A9-35GS-137B7; not shown: C-terminal c-myc tag and His6 tag coded by pAX100) EVQLVESGGGLVQPGGSLRLSCVASGSIVRINTMGWYRQTPGKQRELVADITSGGNINYIDAVKGRFTISRDNTKNTVYLQMNSLKPEDTAVYYCNAEIVVLVGVWTQRARTGNYWGQGTQVTVSSGGGGSGGGGSGGGGSGGGGSGGGGSGGGGSGGGGSEVQLVESGGGLVQPGGSVRLSCVASGIIFRLSALGWTRQGPGKAREWVAGINSDGTTNYADPVKGRFTISRDNAKNTIYLHMDMLKPEDTAVYYCASGKYRGQGTQVTVSS
Reply: 3.4

Query: Form field: reported IC50 of CXCR20026 (bispecific antibody, Biparatopic: two VHH joined by a GlySer linker; also called 163E3-35GS-127D1; 163E3-127D1; not shown: C-terminal c-myc tag and His6 tag coded by pAX100) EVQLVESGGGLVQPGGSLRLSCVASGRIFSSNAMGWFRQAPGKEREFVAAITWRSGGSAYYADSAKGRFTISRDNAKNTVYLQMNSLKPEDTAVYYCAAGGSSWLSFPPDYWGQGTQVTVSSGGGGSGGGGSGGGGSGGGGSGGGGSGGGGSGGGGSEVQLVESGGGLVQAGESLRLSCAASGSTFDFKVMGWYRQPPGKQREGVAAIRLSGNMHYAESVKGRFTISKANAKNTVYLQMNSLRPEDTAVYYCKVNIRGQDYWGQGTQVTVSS
Reply: 0.9

Query: Form field: reported IC50 of CXCR20016 (other, Two different VHH joined by a GlySer linker; also called 137B7-35GS-2B2; not shown: C-terminal c-myc tag and His6 tag coded by pAX100) EVQLVESGGGLVQPGGSVRLSCVASGIIFRLSALGWTRQGPGKAREWVAGINSDGTTNYADPVKGRFTISRDNAKNTIYLHMDMLKPEDTAVYYCASGKYRGQGTQVTVSSGGGGSGGGGSGGGGSGGGGSGGGGSGGGGSGGGGSEVQLVESGGELVQPGGSLRLSCAASGSILTINAMGWYRQAPGKQRELVVRRTRGGSTTYQDSVKGRFTISADIAKKTMYLQMNSLKPEDTAVYYCMLDDRGGVYWGQGTQVTVSS
Reply: 0.8

Query: Form field: reported IC50 of CXCR20025 (bispecific antibody, Biparatopic: two VHH joined by a GlySer linker; also called 163D2-35GS-127D1; not shown: C-terminal c-myc tag and His6 tag coded by pAX100) EVQLVESGGGLVQAGGSLRLSCAASGRTFSDYAMGWFRQAPGKEREFVAAITWNGGRVFYTASVKGRFTISRDNAKNTMYLQMNSLKPEDTAVYYCAADKDRRTDYLGHPVAYWGQGTQVTVSSGGGGSGGGGSGGGGSGGGGSGGGGSGGGGSGGGGSEVQLVESGGGLVQAGESLRLSCAASGSTFDFKVMGWYRQPPGKQREGVAAIRLSGNMHYAESVKGRFTISKANAKNTVYLQMNSLRPEDTAVYYCKVNIRGQDYWGQGTQVTVSS
Reply: 0.9

Just for reference, patent US20130330346A1 is where these values come from.
